All figures here come from the supplement of paper PMC4022240.

- target or test system: anti-H3K9me3 antibody ab8898
- assay text: peptide microarray binding signal (635 nm), min-max normalized on array (fraction of array maximum); higher = stronger binding
- details: peptide region: Unmod H2B variant; binder concentration: 1:10,000 dilution
Items are presented alongside their recorded peptide microarray binding signal.
No unit in the answer, only the number.

As a guide, the following entries are already answered.
# input Form field: reported peptide microarray binding signal of AMGIMNSFVNDIF [Unmod H2B variant A M G I M N S F V N D I F]
# output 0.00311

# input Form field: reported peptide microarray binding signal of PEPVKSAPVPKKG [Unmod H2B variant P E P V K S A P V P K K G]
# output 0.00144

# input Form field: reported peptide microarray binding signal of PGELAKHAVSEGT [Unmod H2B variant P G E L A K H A V S E G T]
# output 0.00484

# input Form field: reported peptide microarray binding signal of NSFVTDIFERIAS [Unmod H2B variant N S F V T D I F E R I A S]
# output 0.00208

# input Form field: reported peptide microarray binding signal of PEPSKSAPAPKKG [Unmod H2B variant P E P S K S A P A P K K G]
# output 0.000923

Let us examine a further case.
# input Form field: reported peptide microarray binding signal of PDPAKSAPAPKKG [Unmod H2B variant P D P A K S A P A P K K G]
# output 0.00075
